# Test system: NCI-H460 lung
# Measurement protocol: NCI-60 one-dose screen, 48 h (100 = growth as untreated, 0 = no growth, -100 = all killed)
# Test settings: 10 µM unless noted
Compounds without any hit were thinned out: in the full panel of roughly 83,000, 20% have a hit.
Please note: met applies when growth is 20% or greater, and not met applies otherwise.

Please review the following examples before continuing.
{"columns": ["Compound", "Class"],
 "data": [
  ["COc1cc(/C=C2/C=C(c3ccc(C(C)(C)C)cc3)N(CCc3ccc(S(N)(=O)=O)cc3)C2=O)cc(OC)c1OC", "met"],
  ["O=C1C(Nc2ccc(Cl)cc2)=C(I)C(=O)c2ncccc21", "not met"],
  ["CCCCCO/N=C\\c1c2c(O)c3c(O)c(C)c4c(c3c1O)C(=O)C(C)(O/C=C\\C(OC)C(C)C(OC(C)=O)C(C)C(O)C(C)C(O)C(C)/C=C\\C=C(\\C)C(=O)N2)O4 (stereo not given)", "not met"],
  ["COc1ccc(Cl)cc1Nc1nc(C(F)(F)F)ccc1C(=O)N/N=C/c1ccc(N(C)C)cc1", "met"]
]}

Is reported growth greater than or equal to 20% here: O=C1CCc2c(sc3[nH]c(=S)n(Cc4ccc(Cl)cc4)c(=O)c23)C1
not met

---

Listing: growth of selected compounds
# Test system: NCI-H322M lung
# Measurement protocol: NCI-60 one-dose screen, 48 h (100 = growth as untreated, 0 = no growth, -100 = all killed)
# Test settings: 10 µM unless noted
About 83,000 compounds went through this panel and 20% of them were active in at least one assay; those are over-represented in the sample as a whole. The source made the active and inactive calls. The calls were made as follows: active = growth percent below 10; inactive = the rest.

Please review the entries below; each comes with its answer.
{"columns": ["Compound", "growth"],
 "data": [
  ["CC(=O)c1c(C)nc(SCC(=O)Nc2ccc(Cl)cc2)n1-c1ccc(Cl)cc1", "94.9% (inactive)"],
  ["O=C(/C=C/c1ccccc1)c1cccs1", "106% (inactive)"],
  ["O=C(NNc1ccccc1)c1ncc[nH]1", "82.8% (inactive)"],
  ["COc1ccc2c(O)c(/C=C3\\N=Nc4nc(C)ccc43)oc2c1CC1CCNCC1", "80.8% (inactive)"],
  ["Cc1ccc(/C=C(\\C#N)c2cc3ccccc3[nH]2)cc1", "87.7% (inactive)"],
  ["C=C1C(=O)O[C@H]2[C@H]1CC/C(COC(=O)NCc1ccc(Cn3c(=O)sn(CCCI)c3=O)cc1)=C\\CC[C@@]1(C)O[C@@H]21", "97.5% (inactive)"],
  ["Nc1ccc(-c2ccc(N)c(Br)c2)cc1Br", "77.3% (inactive)"],
  ["O=C1C(=C(O)c2ccccc2)C(=O)c2ccccc21", "109% (inactive)"]
]}

Could you now consider this next compound?
Fill in the blank: the reported growth of COc1ccc(C2Nc3nc(SC)nc(N)c3N=C3c4ccccc4CCC32)cc1 (stereo not given) is ____.
109% (inactive)

---

# Tested on: RPMI-8226 leukemia
# Measurement protocol: NCI-60 one-dose screen, 48 h
# Test settings: 10 µM unless noted
About 83,000 compounds went through this panel and 20% of them were active in at least one assay; those are over-represented in the sample as a whole. The source made the active and inactive calls. The calls were made as follows: active = growth percent below 10; inactive = the rest.
One label from this list, please: active, inactive

{"columns": ["Compound", "Class"],
 "data": [
  ["Nc1ncc(-c2ccc3ncnc(N4CCc5ccc(Cl)cc54)c3c2)cc1C(F)(F)F", "active"],
  ["O=c1cc(N/N=C/c2ccc(F)cc2)c2cc(Cl)ccc2[nH]1", "active"],
  ["COc1cc(-c2[nH]ncc2Nc2ccc(Cl)cc2)cc(OC)c1OC", "inactive"],
  ["Cc1ccc(Cl)cc1N1CCN(C(=O)[C@@H]2C[C@@H]2c2ccc(F)cc2)CC1", "inactive"],
  ["Cc1nc2cccc(NCCCCC(=O)NO)c2c(=O)n1-c1ccccc1", "inactive"],
  ["O=C(CCN1CCOCC1)Nc1cccc(-n2cc(-c3ccncc3)c(-c3ccc(Cl)c(O)c3)n2)c1", "inactive"],
  ["CCOC(=O)C1=C(C)NC(=O)NC1c1c(Cl)n(-c2ccccc2)c2ccccc12 (stereo not given)", "inactive"],
  ["COc1cc(/C=C2\\CCC/C(=C\\c3cc(CN4CCCC4)c(O)c(OC)c3)C2=O)cc(CN2CCCC2)c1O", "inactive"],
  ["COc1ccc(Cl)cc1Nc1nc(C(F)(F)F)ccc1C(=O)N/N=C/c1ccc(N(C)C)cc1", "inactive"]
]}

Each compound tested received a call. Report the one for CC12OC(CC(O)C1O)n1c3ccccc3c3c4c(c5c6ccccc6n2c5c31)C(=O)N(CCN1CCOCC1)C4=O (stereo not given) .
active

---

# Tested on: RXF 393 renal
# Measurement protocol: NCI-60 one-dose screen, 48 h (100 = growth as untreated, 0 = no growth, -100 = all killed)
# Test settings: 10 µM unless noted
Compounds without any hit were thinned out: in the full panel of roughly 83,000, 20% have a hit.
Measurement kind: growth (%)
Your answer should be a plain number; it is taken to be in %.

Please review the entries below; each comes with its answer.
{"columns": ["Compound", "growth, %"],
 "data": [
  ["COc1ccc(/C=C/C(=O)c2cc3c(N)c(C(=O)Nc4ccccc4)sc3nc2C)cc1", -19.2],
  ["COc1ccc(/C=C(\\C#N)c2cc3ccccc3[nH]2)cc1", 48],
  ["COc1ccc(/C=N\\Nc2nc(SCC(C)C)nc(-c3ccc(OC)cc3)c2C#N)cc1", 34.5]
]}

Fill in the blank: the reported growth of Cc1ccc(NC(=O)N/C(N)=N/c2nc(=O)c3ccccc3s2)cc1 is ____.
99

// query: CC12CCC(C(=O)CC1=O)C2(C)C (centres undefined)
106

---

# Test system: SF-268 CNS
# Measurement protocol: NCI-60 one-dose screen, 48 h
# Test settings: 10 µM unless noted
The panel holds about 83,000 compounds, 20% with a hit somewhere; the sample as a whole holds those more often. Activity calls are given as the source filed them. The calls were made as follows: active = growth percent below 10; inactive = the rest.
One label from this list, please: active, inactive

Please review the following examples before continuing.
{"columns": ["Compound", "Class"],
 "data": [
  ["Cc1ccc(C(=O)Nc2ccc(CN3CCN(C)CC3)c(C(F)(F)F)c2)cc1C#Cc1cnc(N)cc1C#N", "active"],
  ["Cc1ccc2c(c1)C(C)Cc1c(ncnc1-n1cnc3cc(C)ccc31)N2C (stereo not drawn)", "inactive"],
  ["CC12OC(CC(O)C1O)n1c3ccccc3c3c4c(c5c6ccccc6n2c5c31)C(=O)N(CCN1CCOCC1)C4=O (stereo not drawn)", "inactive"]
]}

Each compound tested received a call. Report the one for N#CC1=C(N)Oc2c(sc3c(Br)cccc23)C1c1ccccn1 (stereo not drawn) .
inactive

// query: COC1=CC(=O)C(OC)=C(O)C1=O
inactive

// query: Nc1ncc(-c2ccc3ncnc(N4CCc5ccc(Cl)cc54)c3c2)cc1C(F)(F)F
inactive

// query: COc1cccc(NC(=O)c2sc3nc(C)c(C(O)c4ccccc4)cc3c2N)c1 (stereo not drawn)
inactive

// query: O=C(c1ccc(Nc2nccc(NCCCNc3ccnc4cc(Cl)ccc34)n2)cc1)N1CCCCC1
inactive

// query: COc1ccc(-c2[nH]c3ccccc3c2-c2ccc(OC)cc2)cc1
inactive

// query: O=C(NNc1ccccc1)C1CCCN1 (stereo not drawn)
inactive

// query: COc1cc(/C=C2\C(=O)N(CCCCn3c4ccccc4c(=O)c4ccccc43)c3ccccc32)cc(OC)c1O
inactive

// query: C[N+]1=C(/C=C\C=C\c2ccccc2)C(C)(C)c2ccccc21
inactive

// query: Nc1n[nH]c2cccc(C#Cc3cccc(C(=O)Nc4ccc(CN5CCOCC5)c(C(F)(F)F)c4)c3)c12
inactive

---

# System: MDA-MB-435 melanoma
# Measurement protocol: NCI-60 one-dose screen, 48 h (100 = growth as untreated, 0 = no growth, -100 = all killed)
# Test settings: 10 µM unless noted
This is part of a sample that, as a whole, favours compounds with a hit. Of some 83,000 tested, about 20% had one in any assay. The source made the active and inactive calls. Rule for the calls: active = growth percent below 10; inactive = the rest.
Listing: growth of selected molecules

Please review the entries below; each comes with its answer.
{"columns": ["Molecule", "growth"],
 "data": [
  ["Nn1c(-c2ccc(Cl)cc2)nc2c(-c3ccc(Cl)cc3)nc3ccc(Cl)cc3c2c1=O", "37.4% (inactive)"],
  ["O=C(NNc1ccccc1)c1ccccc1", "69.4% (inactive)"]
]}

Could you now consider this next molecule?
Lookup: growth / MDA-MB-435 melanoma / COc1ccc(/C=N/NC(=O)CN2CCN(c3cc4c(cc3F)c(=O)c(C(=O)O)cn4C3CC3)CC2)cc1O
107% (inactive)

---

# Test system: HOP-92 NSCLC
# Measurement protocol: NCI-60 one-dose screen, 48 h
# Test settings: 10 µM unless noted
About 83,000 compounds went through this panel and 20% of them were active in at least one assay; those are over-represented in the sample as a whole. Calls of active or inactive are those of the source. Rule for the calls: active = growth percent below 10; inactive = the rest.
One label from this list, please: active, inactive

Please review the following examples before continuing.
{"columns": ["Compound", "System under test", "Class"],
 "data": [
  ["OB(O)c1ccsc1-c1nc2ccc3[nH]ncc3c2c2c1CCCC2", "HOP-92 NSCLC", "inactive"],
  ["COc1ccc(Oc2nc(Nc3ccc(N4CCOCC4)cc3)ncc2NC(=O)c2cc(OC)cc(OC)c2)cc1", "HOP-92 NSCLC", "inactive"],
  ["C#Cc1cc(C(=O)Nc2ccc(CN3CCN(C)CC3)c(C(F)(F)F)c2)ccc1C", "HOP-92 NSCLC", "inactive"],
  ["COc1cc2nc3cc([N+](=O)[O-])ccc3c(NCCNCC(C)(C)O)c2cc1OC", "HOP-92 NSCLC", "active"]
]}

Each compound tested received a call. Report the one for C[C@@H]1O[C@@H](O[C@H]2[C@@H](OC(=O)[C@]34CCC(C)(C)C[C@H]3C3=CC[C@@H]5[C@@]6(C)C[C@H](O)[C@H](O[C@@H]7O[C@H](CO)[C@@H](O)[C@H](O)[C@H]7O)[C@@](C)(CO)[C@@H]6CC[C@@]5(C)[C@]3(C)C[C@H]4O)OC[C@@H](O)[C@@H]2O)[C@H](O)[C@H](O[C@@H]2OC[C@@H](O)[C@H](O[C@@H]3OC[C@](O)(CO)[C@H]3O[C@@H]3OC[C@@H](O)[C@H](O)[C@H]3O)[C@H]2O)[C@H]1O[C@@H]1OC[C@](O)(CO)[C@H]1O .
inactive

// query: COc1ccc2nc3cc(Cl)ccc3c(NCCCNCCC(C)O)c2c1 (stereo unspecified)
active
